Assay: STM_H9_CystineISnorm_perc: Stemina devTOX quickPredict H9 human embryonic stem cell (hESC)-based Assay for Cystine (CYSS) Metabolite Biomarker, Normalized (AID 2283713)
Description: STM_H9_secretome utilizes undifferentiated H9 cells to measure relative changes in two metabolites, ornithine (ORN) and cystine (CYSS) in the secretome, targeting a critical drop in the ORN/CYSS ratio as a biomarker for developmental toxicity.STM_H9_CystineISnorm_perc is one of 10 components calculated in the STM_H9_secretome assay. […]
Activity calls are given as the source filed them. Rule for the calls: active = hit-call score of the fitted dose curve at least 0.9, where 1 is the maximum; inactive = score below 0.9.
Just give me one of these, please: 1.0 for active, 0.0 for inactive

{"SMILES": "C[C@]12C=CC(=O)C=C1CC[C@H]1[C@@H]3C[C@@H](O)[C@](O)(C(=O)CO)[C@@]3(C)C[C@H](O)[C@@]12F", "QUALITATIVE_LABEL": 0.0}
{"SMILES": "CC[C@H](C)C(=O)O[C@H]1C[C@H](O)C=C2C=C[C@H](C)[C@H](CC[C@@H](O)C[C@@H](O)CC(=O)O)[C@H]21", "QUALITATIVE_LABEL": 0.0}

Q: Recorded test outcome, item NC(=O)NN=Cc1ccc([N+](=O)[O-])o1
A: 0.0

Q: What call does the record list for OCCNCCO ?
A: 1.0

Q: What was the test verdict on CCCCCCCCCC ?
A: 0.0

Q: What did the test return for CCCCN1C(=O)[C@@H]([C@H](O)C2CCCCC2)NC(=O)C12CCN(Cc1ccc(Oc3ccc(C(=O)O)cc3)cc1)CC2 ?
A: 1.0
